Entries and their measured EC50 asd/EC50 N10K follow.
- System: C. albicans SC5314
- TEST DETAILS: CFU assay, in vitro fungicidal activity
- MEASUREMENT CONTEXT: ratio of EC50 values against C. albicans SC5314
Ends that are not written are not given here.
Please reply with the number alone, leaving off any unit.

Ask | Find the measured EC50 asd/EC50 N10K: item NQVSLTALVK [Peptide C7A] , target or system C. albicans SC5314.
Reply | 54.66

Ask | Please do the same for NQASLTCLVK [Peptide V3A] as well.
Reply | 5.91

Ask | Do the same for NQVALTCLVK [Peptide S4A] please
Reply | 2.38

Ask | Try this sequence next: NQVSLTCAVK [Peptide L8A]
Reply | 0.74

Ask | Would you mind doing AQVSLTCLVK [Peptide N1A] as well?
Reply | 0.58

Further cases:
Ask | API: value(readout=EC50 asd/EC50 N10K, system=C. albicans SC5314) for record NAVSLTCLVK [Peptide Q2A]
Reply | 2.30

Ask | Could you do the same for NQVSLTCLAK [Peptide V9A] , please?
Reply | 1.77

Ask | Same lookup for NQVSATCLVK [Peptide L5A] , please.
Reply | 0.88

Ask | How about NQVSLACLVK [Peptide T6A] ?
Reply | 4.86

---

- System: C. albicans SC5314
- MEASUREMENT CONTEXT: SC5314, 6 h, 100
Ends that are not written are not given here.
% inhibitory activity at 100 µg/ml in comparison to the control growth (water) values for the sequences below.
Give the value in % but do not write % after it.

Worked examples, 6 sequences total:
Ask | # input sequence: TCRVDHRGLAF [Peptide T10A] ; wanted: its % inhibitory activity at 100 µg/ml in comparison to the control growth (water)
Reply | 100

Ask | Now consider ACRVDHRGLTF [Peptide T1A] and answer again.
Reply | 100

Ask | Param item: NQVSLTCLVK [Peptide N10K]
Reply | 100

Ask | Moving on to NQVSLACLVK [Peptide T6A]
Reply | 100

Ask | What about TCRVDARGLTF [Peptide H6A] ?
Reply | 100

Ask | Also, TCRVAHRGLTF [Peptide D5A] please.
Reply | 100

New cases:
Ask | Need % inhibitory activity at 100 µg/ml in comparison to the control growth (water), item NQVSLTCLAK [Peptide V9A]
Reply | 100

Ask | Same question, TCRVDHRALTF [Peptide G8A] this time
Reply | 100

Ask | Try this sequence too: AQVSLTCLVK [Peptide N1A]
Reply | 100

Ask | Now this one: TCAVDHRGLTF [Peptide R3A]
Reply | 97.61

---

- System: C. albicans SC5314
- MEASUREMENT CONTEXT: SC5314, 6 h, 100
Ends that are not written are not given here.
% inhibitory activity at 100 µg/ml in comparison to the control growth (water) values for the sequences below.
The reply should contain only the number, in %.

Reference set (4 entries):
Ask | Test system C. albicans SC5314; read-out % inhibitory activity at 100 µg/ml in comparison to the control growth (water); what value for TCRVDHAGLTF [Peptide R7A] ?
Reply | 100

Ask | And then TCRVDHRGATF [Peptide L9A] , what is it?
Reply | 100

Ask | Query NAVSLTCLVK [Peptide Q2A] next
Reply | 100

Ask | Now this one: TCRVDHRGLTA [Peptide F11A]
Reply | 100

Next:
Ask | Find % inhibitory activity at 100 µg/ml in comparison to the control growth (water) (C. albicans SC5314) for the entry TCRADHRGLTF [Peptide V4A]
Reply | 100

Ask | For NQVSATCLVK [Peptide L5A] then?
Reply | 100

Ask | Likewise for TCRVDHRGLTF [Peptide T11F] ?
Reply | 100
